experiment: in vitro; conditions: human
metricName: CC50 at 5 days

stdin: Report CC50 at 5 days for `NC(=O)c1ncn([C@@H]2O[C@H](CO)[C@@H](O)[C@H]2O)n1`
stdout: > 200 µM
